- System: L1210
- test.protocol: Cytotoxic activity against L1210 leukemia cells
- Format: functional, cell-based, Mus musculus
- condition.set: Mus musculus, L1210
property.label: IC50 (nM)
Numbers only, in nM.

Use the examples below as a reference point.
Cc1ccc2[nH]c(C(=O)N3C[C@H]4C[C@@]45C3=CC(=O)c3ccccc35)cc2c1 = 2
COc1cccc2cc(C(=O)N3C[C@H]4C[C@@]45C3=CC(=O)c3ccccc35)[nH]c12 = 0.3

Respectfully, I request IC50 for each entry included below.
1. [N-]=[N+]=Nc1ccc2[nH]c(C(=O)N3C[C@H]4C[C@@]45C3=CC(=O)c3ccccc35)cc2c1
2. CCCC(=O)Nc1ccc2[nH]c(C(=O)N3C[C@H]4C[C@@]45C3=CC(=O)c3ccccc35)cc2c1
3. O=C1C=C2N(C(=O)c3cc4ccccc4[nH]3)C[C@H]3C[C@@]23c2ccccc21
4. CCC(=O)c1ccc2[nH]c(C(=O)N3C[C@H]4C[C@@]45C3=CC(=O)c3ccccc35)cc2c1

Output:
1: 0.3; 2: 0.03; 3: 2.7; 4: 0.003
